molecular target: human carbonic anhydrase IX (CAIX) (human, UniProt Q16790 38-414); experiment: competition fluorescence polarisation, tracer A-(SEQ ID NO:1)-A-Sar6-K(FI)
pKi: −log10 of the molar value. *1 amine or outer side, *2 acyl side, *3 side chain or, on linkers, in order; H or OH if unused. Bridges are numbered along the chain shown (N, C = ends). Where no end group is shown, it is not given here. TBMB = c1c(C[*:1])cc(C[*:3])cc1C[*:2]
Quantity: pKi

>  <Binder>
ACTECWIDGWVPCA (linker 2-5-13 via TBMB, Bicyclic peptide on TBMB scaffold) [61-01-07-N001]

>  <Quantity>
pKi

>  <Quantitative Result>
8.10

$$$$
>  <Binder>
ACLECWVDGWVPCA (linker 2-5-13 via TBMB, Bicyclic peptide on TBMB scaffold) [61-01-04-N001]

>  <Quantity>
pKi

>  <Quantitative Result>
8.24

$$$$

I = ACGECWADGWVPCA (linker 2-5-13 via TBMB, Bicyclic peptide on TBMB scaffold) [61-01-01-N001]
II = ACTECWVDGWVPCA (linker 2-5-13 via TBMB, Bicyclic peptide on TBMB scaffold) [61-01-02-N001]
III = ACSECWVDGWVSCA (linker 2-5-13 via TBMB, Bicyclic peptide on TBMB scaffold) [61-01-03-N001]
Ascending sort, pKi. When ranking, write the labels in the order the request describes.
I, III, II
(I: 7.09, III: 7.64, II: 8.15)

Origin of values: patent US20220133732A1
